assay: Solubility study in water by visual assessment; assay type: physicochemical; details: thermodynamic from solid; water, ambient, pH 5.5; amorphous
Field: solubility. Provide a value for each of the molecules that follow.

{"molecule": "C[C@@](Cc1ccc(OP(=O)(O)O)c(OP(=O)(O)O)c1)(NN)C(=O)O [Carbidopa 3′,4′-diphosphate]", "solubility": "> 247 mg/mL"}

Shift focus to the following entry.
Q: solubility lookup needed for N[C@@H](Cc1ccc(OP(=O)(O)O)c(OP(=O)(O)O)c1)C(=O)O [L-dopa 3′,4′-diphosphate] , thanks.
Ans: > 330 mg/mL

###

test: Solubility study in water by visual assessment; type: physicochemical; conditions: thermodynamic from solid; water, ambient, pH 4-7; crystalline (carbidopa: crystalline monohydrate)
readout.name: solubility

Q: solubility lookup needed for C[C@@](Cc1ccc(O)c(O)c1)(NN)C(=O)O , thanks.
Ans: < 4000 µg/mL

# credit: patent US10730895B2
